Origin of the recorded values: patent US20240360113A1

Parameter: LAD Raw Fluorescence Units against LFA-1; Dose 3 µM; Ratio of raw counts Compound/THI0349. Scope: all listed entries.
Target: αLβ2/ICAM-1 (Homo sapiens, UniProt P05107+P20701)
Construct: The Jurkat (VCAM-1 assays) and HSB (ICAM-1 assays) cell lines were obtained from American Type Culture Collection; endogenous in cells; host or cells: HSB (ATCC)
Sequence (P20701 26-1170): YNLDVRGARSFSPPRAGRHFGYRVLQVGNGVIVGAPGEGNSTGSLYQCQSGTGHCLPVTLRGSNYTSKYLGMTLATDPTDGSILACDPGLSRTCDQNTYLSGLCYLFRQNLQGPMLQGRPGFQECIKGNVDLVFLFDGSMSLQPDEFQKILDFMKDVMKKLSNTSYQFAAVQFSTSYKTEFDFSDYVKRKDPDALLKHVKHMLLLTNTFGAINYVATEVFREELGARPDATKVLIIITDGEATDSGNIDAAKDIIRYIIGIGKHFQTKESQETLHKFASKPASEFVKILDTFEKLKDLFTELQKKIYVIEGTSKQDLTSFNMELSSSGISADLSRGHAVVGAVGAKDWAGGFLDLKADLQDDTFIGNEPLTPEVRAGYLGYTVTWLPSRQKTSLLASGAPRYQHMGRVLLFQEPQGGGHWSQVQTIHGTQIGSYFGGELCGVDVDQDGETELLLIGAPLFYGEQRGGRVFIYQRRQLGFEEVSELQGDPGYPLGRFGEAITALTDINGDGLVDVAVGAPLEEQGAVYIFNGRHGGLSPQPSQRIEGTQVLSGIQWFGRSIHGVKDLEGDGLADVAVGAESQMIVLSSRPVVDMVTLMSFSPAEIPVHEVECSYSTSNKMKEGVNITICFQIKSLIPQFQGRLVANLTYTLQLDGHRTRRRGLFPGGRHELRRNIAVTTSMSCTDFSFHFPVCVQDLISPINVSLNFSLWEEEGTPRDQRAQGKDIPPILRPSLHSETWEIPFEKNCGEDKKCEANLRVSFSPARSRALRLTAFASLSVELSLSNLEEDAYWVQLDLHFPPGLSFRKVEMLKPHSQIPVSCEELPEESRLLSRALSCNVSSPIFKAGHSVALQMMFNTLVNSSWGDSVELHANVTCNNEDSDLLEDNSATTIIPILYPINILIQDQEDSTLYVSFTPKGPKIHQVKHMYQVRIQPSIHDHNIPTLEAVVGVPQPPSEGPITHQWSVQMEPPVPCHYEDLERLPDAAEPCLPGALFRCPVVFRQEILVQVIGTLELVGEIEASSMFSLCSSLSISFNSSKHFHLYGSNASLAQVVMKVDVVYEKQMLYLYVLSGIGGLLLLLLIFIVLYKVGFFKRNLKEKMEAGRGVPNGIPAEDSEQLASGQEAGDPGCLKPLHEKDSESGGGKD
Sequence (P05107 23-769): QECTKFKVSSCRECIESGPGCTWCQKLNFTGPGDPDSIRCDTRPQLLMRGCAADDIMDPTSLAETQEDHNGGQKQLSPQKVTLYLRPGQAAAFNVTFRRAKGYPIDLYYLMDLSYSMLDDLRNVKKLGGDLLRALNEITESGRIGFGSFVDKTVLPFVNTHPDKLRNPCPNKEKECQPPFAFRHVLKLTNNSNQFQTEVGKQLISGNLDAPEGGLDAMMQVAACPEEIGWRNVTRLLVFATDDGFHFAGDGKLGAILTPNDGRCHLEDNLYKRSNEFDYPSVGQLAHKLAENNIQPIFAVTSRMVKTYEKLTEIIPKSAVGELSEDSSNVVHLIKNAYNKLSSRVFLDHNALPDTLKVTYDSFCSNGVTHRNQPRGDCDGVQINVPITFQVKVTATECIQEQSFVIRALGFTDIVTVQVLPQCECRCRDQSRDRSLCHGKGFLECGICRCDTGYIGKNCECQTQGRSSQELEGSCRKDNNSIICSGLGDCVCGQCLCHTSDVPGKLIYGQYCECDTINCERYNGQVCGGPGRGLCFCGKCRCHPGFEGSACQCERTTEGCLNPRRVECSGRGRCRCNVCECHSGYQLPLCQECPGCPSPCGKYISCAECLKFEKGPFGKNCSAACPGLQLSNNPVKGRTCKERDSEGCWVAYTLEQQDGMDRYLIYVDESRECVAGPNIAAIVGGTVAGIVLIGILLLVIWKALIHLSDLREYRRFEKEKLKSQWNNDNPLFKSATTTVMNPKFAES
Experiment: Static cell adhesion assay, HSB cells on ICAM-1 (LFA-1; LAD)
Type: cell-based
Conditions: RFU of compound / RFU of THI0349, both at the same concentration
Measurement Name: LAD Raw Fluorescence Units against LFA-1; Dose 3 µM; Ratio of raw counts Compound/THI0349

smiles_record=COc1cccc(CN(Cc2ccc3[nH]ncc3c2)c2nc(CN3CCOCC3)cs2)c1 measured_result=0.34
smiles_record=CCOC(=O)c1csc(N(C)Cc2cccc(OC)c2)n1 measured_result=0.05
smiles_record=CCOC(=O)c1csc(N(Cc2cccc(OC)c2)Cc2cccc(-n3ccnc3)c2)n1 measured_result=0.15
smiles_record=CCOC(=O)c1coc(N(Cc2cccc(OCCOC)c2)Cc2cccc(OCCOC)c2)n1 measured_result=0.49
smiles_record=COc1cccc(CN(Cc2cccc(OC)c2)c2nc(COCCOCc3ccccc3)cs2)c1 measured_result=0.48
smiles_record=COc1cccc(CNC(=O)c2coc(N(Cc3cccc(OC)c3)Cc3cccc(OC)c3)n2)c1 measured_result=0.17
smiles_record=COc1cccc(CN(Cc2cccc(OC)c2)c2nc(COCCN3CCN(C)CC3)cs2)c1 measured_result=0.27
smiles_record=CCOC(=O)c1csc(N(Cc2cccc(OC)c2)Cc2ccc3[nH]ncc3c2)n1 measured_result=0.09
smiles_record=COc1cccc(CN(Cc2cccc(OC)c2)c2nc(CN3CCCCC3)cs2)c1 measured_result=1.6
smiles_record=COc1cccc(COc2ccc(N(Cc3cccc(OC)c3)Cc3cccc(OC)c3)cc2)c1 measured_result=0.09
smiles_record=COc1cccc(CN(Cc2cccc(OC)c2)c2nc(CN3CCOCC3)cs2)c1 measured_result=1.2
smiles_record=COc1cccc(CN(Cc2cccc(OC)c2)c2nc(COCCOCCOc3cccc(C#N)c3)cs2)c1 measured_result=0.76
smiles_record=COc1ccc(CN(Cc2ccc(OC)cc2)c2nc(CO)co2)cc1 measured_result=0.79
smiles_record=COc1cccc(CN(Cc2cccc(N3CCOCC3)c2)c2nc(CN3CCOCC3)cs2)c1 measured_result=0.4
smiles_record=COc1cccc(CN(Cc2cccc(OC)c2)c2nc(CCN3CCOCC3)cs2)c1 measured_result=0.14
smiles_record=COc1cccc(CN(Cc2cccc(-n3ccnc3)c2)c2nc(CN3CCOCC3)cs2)c1 measured_result=0.32
smiles_record=CCOC(=O)c1csc(N(Cc2cccc(OC)c2)CC(C)C)n1 measured_result=0.18
smiles_record=COc1cccc(CN(Cc2cccc(OC)c2)c2nc(COCCN3CCOCC3)cs2)c1 measured_result=0.31
smiles_record=COc1cccc(CN(Cc2cccc(OC)c2)c2nc(COCCOc3ccccc3)cs2)c1 measured_result=1.2
smiles_record=COc1cccc(CN(Cc2cccc(N(C)C)c2)c2nc(CN3CCOCC3)cs2)c1 measured_result=0.12
smiles_record=COc1cccc(CN(Cc2cccc(OC)c2)c2nc(COCCN3CCc4ccccc43)cs2)c1 measured_result=0.18
smiles_record=COc1cccc(CN(C)c2nc(CN3CCOCC3)cs2)c1 measured_result=0.06
smiles_record=CCc1nnc(N(Cc2cccc(OC)c2)Cc2cccc(OC)c2)s1 measured_result=0.29
smiles_record=CCOC(=O)c1coc(N(Cc2cccs2)Cc2cccs2)n1 measured_result=0.1
smiles_record=COc1ccc(CCCOCc2coc(N(Cc3cccs3)Cc3cccs3)n2)cc1 measured_result=0.85
smiles_record=COc1cccc(CN(Cc2cccc(OC)c2)c2nc(COCCO)cs2)c1 measured_result=0.31
smiles_record=COc1cccc(CN(Cc2cccc(OC)c2)c2nc(COCCOc3cccc(OC)c3)cs2)c1 measured_result=0.7
smiles_record=COc1cccc(CN(Cc2cccc(OC)c2)c2nc(COCCOCCOCc3ccccc3C)cs2)c1 measured_result=1.8
smiles_record=COc1cccc(CN(C)c2nc(C)cs2)c1 measured_result=0.05
smiles_record=COc1cccc(CN(Cc2cccc(OC)c2)c2nc(COCCOc3ccc(N(C)C)cc3)cs2)c1 measured_result=1.3
smiles_record=CCOC(=O)c1csc(N(Cc2cccc(OC)c2)Cc2cccc(-n3cccn3)c2)n1 measured_result=0.2
smiles_record=COC(=O)c1nc(N(Cc2cccc(OC)c2)Cc2cccc(OC)c2)sc1C measured_result=0.03
smiles_record=COc1cccc(CN(Cc2cccc(OC)c2)c2nc(COCCOCCN3CCN(C)CC3)cs2)c1 measured_result=0.5
smiles_record=CCOC(=O)c1csc(N(Cc2cccc(OC)c2)Cc2ccc3ncccc3c2)n1 measured_result=0.39
smiles_record=COc1cccc(COCc2csc(N(C)Cc3cccc(OC)c3)n2)c1 measured_result=0.04
